biological target: 5-HT7 (Homo sapiens); construct: expressed in transfected cells; host or cells: CHO cells; experiment: 5-HT7 receptor binding assay; details: 100 nM compound; read-out: % inhibition of control specific at 100 nM conc.
Sequence (P34969 whole entry): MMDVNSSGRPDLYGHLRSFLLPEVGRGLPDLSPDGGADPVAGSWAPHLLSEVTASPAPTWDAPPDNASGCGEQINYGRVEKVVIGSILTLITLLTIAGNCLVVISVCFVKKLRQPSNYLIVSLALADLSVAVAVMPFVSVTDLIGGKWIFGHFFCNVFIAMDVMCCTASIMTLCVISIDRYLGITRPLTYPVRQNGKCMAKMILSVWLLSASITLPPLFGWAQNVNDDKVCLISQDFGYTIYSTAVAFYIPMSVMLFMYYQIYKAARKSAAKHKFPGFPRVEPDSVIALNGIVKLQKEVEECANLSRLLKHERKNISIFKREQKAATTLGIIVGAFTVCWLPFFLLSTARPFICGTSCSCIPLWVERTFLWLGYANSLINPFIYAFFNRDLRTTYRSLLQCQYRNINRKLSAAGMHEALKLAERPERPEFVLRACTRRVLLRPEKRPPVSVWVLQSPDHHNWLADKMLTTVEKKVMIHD
Reported inhibition at 0.1 µM values are given for each entry in this list.
Respond numerically; units are % and should not be typed.

Reference set, count: 3
> print(dat)
                    molecule.smiles  unit  observed.value
1   Cc1cccc(O[C@H]2CCNC[C@@H]2O)c1C     %              22
2  Cc1cccc(O[C@@H]2CCNC[C@@H]2O)c1C     %               6
3    Cc1cccc(O[C@H]2CCNC[C@H]2O)c1C     %               1

Query compound follows.
Look at this compound and give its reported inhibition at 0.1 µM. Cc1cccc(O[C@@H]2CCNC[C@H]2O)c1C
16
